# assay_target: rTr1 (Ehrlichia chaffeensis) (UniProt Q2GF81)
# Sequence: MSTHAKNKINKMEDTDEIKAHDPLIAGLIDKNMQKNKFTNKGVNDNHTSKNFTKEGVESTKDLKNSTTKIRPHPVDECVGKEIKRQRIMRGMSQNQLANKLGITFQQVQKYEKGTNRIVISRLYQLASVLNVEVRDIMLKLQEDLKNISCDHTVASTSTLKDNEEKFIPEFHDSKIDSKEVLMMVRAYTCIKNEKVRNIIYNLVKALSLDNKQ
# method_description: DNase I footprinting
# test_parameters: EMSA/footprint: 10 mM Tris-HCl pH 7.5, 100 mM NaCl, 1 mM DTT, 10% glycerol, 25 C, SPR: 10 mM Tris-HCl pH 7.5, 100 mM NaCl, 0.05% Tween 20, 25 C
quantity_kind: binding

CCTATAACAAAGCAACCTATGTAAGATAAATCATGCATAAAGTGAATGCAATAGTTATTTAATGGATATATTCTATCTAGTTTGCTGGAATAGTATACTAATTATATAATATACAGAAATAACATATTATGCTTTATGAAATATAAGATAAAATTTATTTACTTTTTAGCTTGATTGGATCAATAATTTATATTAAACATGAAAGTCAGTTTGTCCGGGT (double strand) [tr1 promoter footprint fragment] ... binds

----------
# assay_target: rTr1 (Ehrlichia chaffeensis)
# Sequence: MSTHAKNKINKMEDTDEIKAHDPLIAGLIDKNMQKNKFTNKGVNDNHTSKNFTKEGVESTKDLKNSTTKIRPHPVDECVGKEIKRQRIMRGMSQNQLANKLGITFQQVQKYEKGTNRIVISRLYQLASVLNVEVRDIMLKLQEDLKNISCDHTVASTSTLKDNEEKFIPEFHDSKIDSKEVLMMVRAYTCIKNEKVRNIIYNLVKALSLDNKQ
# method_description: DNase I footprinting
# test_parameters: EMSA/footprint: 10 mM Tris-HCl pH 7.5, 100 mM NaCl, 1 mM DTT, 10% glycerol, 25 C, SPR: 10 mM Tris-HCl pH 7.5, 100 mM NaCl, 0.05% Tween 20, 25 C
quantity_kind: binding

GTGATAGGGAATGAATTCAGAGATATTCCTGCTATGATACCCAGTACCTCAACTCTCACAGGTAATCACTTTACTATAGTAACACTAAGTGTATGCCACTTTGGAGTGGAACTTGGAGGAAGGTTTAACTTTTAATTTTATTATTGCCACATGTTAAAAATAATCTAAACTTGTTTTTATTATTGCTGCAGGTAAATAAAAATAGTGGCAAAAGAATGTAGCAATAAGAGGGGGGGGGGGGGGACTAGTTTATAAGTGCTGTTTTTCTCACCTTTA (double strand) [p28 II footprint fragment] ... binds
GAATTTGTGATTTGAAATAACAAGACTTAAATGTCGAATTTAGCTTCTGTCCTAGTGGATAAGTACTTTAGCAAGTGGTAAAAGCAAGTCTACTCATATTTTTATTAATTAAGTAGTAAAGTTAACTATAGATTTTATTAAAATTTTTATTCTAATCACTTTAAATATCAATTACTTTTGTTGTAAATTTGAAAGAAATTTTATATTCTAGACTTGCTTTTCTTTATTTCTTTCATTATTCTTAAATTTTTATTATCTTTTATAAAAGGTTTATTAAC (double strand) [omp-1B promoter footprint fragment] ... binds
ATGATATCAATGCACTTGTTATGAAAACTTTTTTGTAATTCATATATAACCTAATAGTGACAAATAAATTAACAATAGTAGAAGTGTCATATAAAAGCAAGTCAGAATATAAATTTTTGTATAAAATATCGGTAACTTTTGTAAGGAAAATTTAATATATTACGTCAGGTAAGTAATAGCAAAAAAACTGGTTAAGTATAGTATCATGTGTAAAGGTGAGAAAAACAGCACTTATA (double strand) [p28 promoter footprint fragment] ... binds
